Molecular target: Axl (Homo sapiens)
Construct: endogenous in cells; host or cells: HeLa cells
Sequence (P30530 26-894): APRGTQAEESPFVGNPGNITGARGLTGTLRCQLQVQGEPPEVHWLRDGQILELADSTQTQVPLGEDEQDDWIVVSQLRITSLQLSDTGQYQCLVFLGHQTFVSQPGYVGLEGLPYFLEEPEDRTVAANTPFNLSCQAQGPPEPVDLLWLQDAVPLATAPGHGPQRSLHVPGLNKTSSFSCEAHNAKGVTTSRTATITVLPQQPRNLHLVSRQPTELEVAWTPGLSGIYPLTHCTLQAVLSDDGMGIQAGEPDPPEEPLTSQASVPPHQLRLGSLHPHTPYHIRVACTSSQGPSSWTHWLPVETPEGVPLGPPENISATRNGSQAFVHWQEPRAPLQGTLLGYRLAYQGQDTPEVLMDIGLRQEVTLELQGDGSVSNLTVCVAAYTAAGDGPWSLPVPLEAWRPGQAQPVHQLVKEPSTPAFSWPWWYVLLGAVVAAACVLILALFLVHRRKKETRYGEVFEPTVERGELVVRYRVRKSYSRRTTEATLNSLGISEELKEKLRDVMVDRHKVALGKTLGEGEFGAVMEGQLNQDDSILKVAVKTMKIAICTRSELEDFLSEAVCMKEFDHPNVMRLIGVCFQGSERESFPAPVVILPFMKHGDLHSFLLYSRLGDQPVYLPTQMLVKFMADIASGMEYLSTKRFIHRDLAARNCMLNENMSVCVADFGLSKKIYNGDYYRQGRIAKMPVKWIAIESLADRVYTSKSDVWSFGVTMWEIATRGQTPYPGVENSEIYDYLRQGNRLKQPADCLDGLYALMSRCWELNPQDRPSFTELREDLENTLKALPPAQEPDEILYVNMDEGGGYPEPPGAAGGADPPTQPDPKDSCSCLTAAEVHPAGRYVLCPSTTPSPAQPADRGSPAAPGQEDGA
Experiment: Phospho-Akt In-Cell Western Assay (inhibition of Axl activity after Axl-antibody cross-linking)
Assay type: cell-based
Conditions: inhibition of Axl activity; Table 1, compounds of formula (Ia); read-out: IC50
As shown below, each of these compounds has a reported IC50 value.
quantity: IC50

{"compound": "CN(C)C1CCN(CC=Cc2ccc(Nc3nc(N)n(-c4cc5c(nn4)-c4ccccc4CCC5)n3)cc2)C1 (centres unmarked)", "quantity": "IC50", "obs value": "< 1000 nM"}
{"compound": "Nc1nc(Nc2ccc(C3CCN(C4CC5CCC4C5)CC3)cc2)nn1-c1cc2c(nn1)-c1ccccc1SCC2 (centres unmarked)", "quantity": "IC50", "obs value": "< 1000 nM"}
{"compound": "CN(C)[C@@H]1CCN(c2ccc(Nc3nc(N)n(-c4cc5c(nn4)-c4ccccc4CCC5)n3)cc2F)C1", "quantity": "IC50", "obs value": "< 1000 nM"}
{"compound": "CN1CCN(c2ccc(Nc3nc(N)n(-c4cc(-c5ccccc5)c5c(n4)-c4ccccc4CCC5)n3)cc2)CC1", "quantity": "IC50", "obs value": "1000 to 10000 nM"}
{"compound": "Nc1nc(Nc2ccc(C=CCN3CCN(C4CCCC4)CC3)cc2)nn1-c1cc2c(nn1)-c1ccccc1CCC2", "quantity": "IC50", "obs value": "< 1000 nM"}
{"compound": "Nc1nc(Nc2ccc3c(c2)CCC(N2CCCCC2)CC3)nn1-c1cc2c(nn1)-c1ccccc1CCC2 (centres unmarked)", "quantity": "IC50", "obs value": "< 1000 nM"}
{"compound": "CN1CCN(C2CCN(CC=Cc3ccc(Nc4nc(N)n(-c5cc6c(nn5)-c5ccccc5CCC6)n4)cc3)CC2)CC1", "quantity": "IC50", "obs value": "< 1000 nM"}
{"compound": "Nc1nc(Nc2ccc(N3CCC(N4CCCC4)CC3)c(F)c2)nn1-c1cc(-c2ccccc2)c2c(n1)-c1ccccc1CCC2", "quantity": "IC50", "obs value": "1000 to 10000 nM"}
{"compound": "Cc1cc(Nc2nc(N)n(-c3cc4c(nn3)-c3ccccc3CCC4)n2)cnc1N1CCC(N2CCCC2)CC1", "quantity": "IC50", "obs value": "< 1000 nM"}
{"compound": "CCN(CC)C1CCc2ccc(Nc3nc(N)n(-c4cc5c(nn4)-c4ccccc4CCC5)n3)cc2CC1 (centres unmarked)", "quantity": "IC50", "obs value": "< 1000 nM"}
{"compound": "Nc1nc(Nc2ccc(C=CCN3CCC(N4CCCCC4)CC3)cc2)nn1-c1cc2c(nn1)-c1ccccc1CCC2", "quantity": "IC50", "obs value": "1000 to 10000 nM"}

Origin of the recorded values: patent US7709482B2
